# Tested on: Micrococcus lysodeikticus ATTC No. 4698
# ASSAY_DETAILS: Lysozyme activity turbidity assay (optical density drop at 540 nm)
# STATED_CONDITIONS: OD drop assay
MEASURED_ENDPOINT: Lysozyme activity against Micrococcus lysodeikticus (in words)

SEQ ID NO: 257: mature GH24 lysozyme from Trichophaea saccata, comprising a GH24 domain and a lysozyme enhancing domain (LED) (protein, listed as Trichophaea saccata, mat_peptide (1)..(245)) YPVKTDLHCRSSPSTSASIVRTYSSGTEVQIQCQTTGTSVQGSNVWDKTQHGCYVADYYVKTGHSGIFTTKCGSSSGGGSCKPPPINAATVALIKEFEGFVPKPAPDPIGLPTVGYGHLCKTKGCKEVPYSFPLTQETATKLLQSDIKTFTSCVSNYVKDSVKLNDNQYGALASWAFNVGCGNVQTSSLIKRLNAGENPNTVAAQELPKWKYAGGKVMPGLVRRRNAEVALFKKPSSVQAHPPKC = good activity
SEQ ID NO: 267: mature GH24 lysozyme from Trichoderma harzianum, comprising LED (protein, listed as Trichoderma harzianum, mat_peptide (1)..(248), mature GH24 lysozyme from Trichoderma harzianum, comprising LED) YPITGDVVNCRTGPGTSYAIKKSYKKNQDISISCQTAGTSVNGNSIWDKTADGCYVADYYVKTGSSGYVTKKCTASSGGGSSSSYCKTINSAGVDLIAKWEGFVASPKPDPIGLPTVGYGHLCQQKNCREVKYKFPLTKTTAKELLLDDLPKYTKCLADYLNDKPKLNANQWAALTSWVFNVGCGNAKTSTLVKRLNNGEAANTVAAEELPKWRMAGGKVLPGLEARRKDEVKLFKTASSKQAYPKCQ = good activity
SEQ ID NO: 294: mature GH24 lysozyme from Chaetomium sp. ZY287 (protein, listed as Chaetomium sp., mat_peptide (1)..(249), mature GH24 lysozyme from Chaetomium sp; ZY287) YKISGSSVNCRSGPGTNYPVKKTYANGDEVTISCQTTGTNVEGNNIWDKTQHGCYVADKYVKTGKDGFVTKKCGSSGGGGGGKTCKAPKSNAATVDLIASFEGFRANIYTDATGHPTVGYGHMCTKSRCAEVKYKIPLSKADGKKLLADDMAKFEKCIKEMLNSKAKLNLNQYGALVSWSFNVGCGAAKGSQLVSRLNKGENPNTVLSNELPKWVHGNGKVLPGLVRRRNAEIALAKKSGSGAALPVKC = good activity
